method-description: NCI Yeast Anticancer Drug Screen. Data for the sgs1 mgt1 strain (AID 161);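 further: 0% = growth of cultures given vehicle only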
run-parameters: S. cerevisiae sgs1 mgt1 strain, at 50.0 µM, stronger effect = higher value
Compounds without any hit were thinned out: in the full panel of roughly 79,000, 15% have a hit.
Please provide measured growth inhibition for the entries that follow.
One number for each entry, in %.

See these solved cases before continuing.
INSERT INTO results (compound, observed_result) VALUES
  ('CCCCN(CCC(=O)O)c1ccc(/C=C\c2ccnc3ccccc23)cc1', 95.6),
  ('CC(=O)N1CC(C)CC2OC3(CCC4C5CCC6CC(O)CCC6(C)C5C(=O)C4C3C)C(C)C21 (centres undefined)', 92.6),
  ('COc1ccc2c(c1)CCCN2S(=O)(=O)c1ccc(N)cc1', 36.8);

Required: growth inhibition, one value per compound below.
1. CCc1[nH]c2ccccc2c1N1C(=O)CC2(CCN(Cc3ccccc3)CC2)CC1=O
2. COC(=O)/C=C(\NC1CC(OC2C[C@](O)(C(C)=O)Cc3c(O)c4c(c(O)c32)C(=O)c2c(OC)cccc2C4=O)OC(C)C1O)C(=O)OC (some centres undefined)
3. O=C(O)C(Br)C(Br)C(=O)Nc1ccc(Cl)c(Cl)c1 (centres undefined)
4. CC1CCN(SSc2nc3ccccc3s2)CC1
5. CC(=O)c1c2c(cc3c1CC1(C3)Cc3cc4c(c(C(=O)O)c3C1)CCCC4)CCCC2 (centres undefined) (tested in a mixture with another compound)

# output
1: 32.4; 2: 97.7; 3: 96.8; 4: 77.4; 5: 97.8

# input So what does the record say about growth inhibition for `CN(C)c1ccccc1CN1CCCN(Cc2ccccc2N(C)C)C1` ?
# output 75.2
